Tested on: DLD-1 colon
Assay: NCI tumour cell line growth inhibition, 48 h
Consider the following compounds and their measured TGI readings.

COMPOUND: Cc1cc(N(CCC#N)CCC#N)ccc1N=Nc1ccc(S(N)(=O)=O)cc1
TGI: > 100 µM
--
COMPOUND: OCC1=CC(NC2CC(CO)C(O)C(O)C2O)C(O)C(O)C1O (stereo unspecified)
TGI: > 100 µM
--
COMPOUND: O=C(Nc1nc2ccc([N+](=O)[O-])cc2s1)C(=O)C(C1OC(=O)c2ccccc21)[N+](=O)[O-] (stereo unspecified)
TGI: > 100 µM
--
COMPOUND: O=C(O)CCNCCCNCCC(=O)O
TGI: > 100 µM
--
COMPOUND: CN(C)N=Nc1ccc(C(N)=O)cc1
TGI: > 100 µM
--
COMPOUND: O=C(CCN1CCCCC1)C(=Cc1ccccc1)C(=O)CCN1CCCCC1
TGI: 44.5 µM

====

Tested on: NCI-H522 lung
Assay: NCI tumour cell line growth inhibition, 48 h
READOUT NAME: TGI

COMPOUND: COC(=O)C1(C(C)C)CCc2c(OC)ccc(OC)c2C1=O (stereo not given)
ASSAY VALUE: > 100 µM
//
COMPOUND: Cc1cc(Cc2cc(C)c(N)cc2N)c(N)cc1N
ASSAY VALUE: > 100 µM
//
COMPOUND: Cc1ccsc1C(=S)Nc1ccc(Cl)c(/C=N/OC(C)(C)C)c1
ASSAY VALUE: > 100 µM
//
COMPOUND: C=CC1(C)CCC2C(=CCC3C2(C)CC(O)C(O)C3(C)COC2OC(C(=O)O)C(O)C(O)C2O)C1 (stereo not given) (tested in a mixture with another compound)
ASSAY VALUE: > 100 µM
//
COMPOUND: CCC(C(=O)O)c1ccc(OC)cc1 (stereo not given)
ASSAY VALUE: > 100 µM
//
COMPOUND: O=C(CCc1nc(=S)[nH][nH]1)Nc1cc(Cl)c(Cl)cc1Cl
ASSAY VALUE: > 100 µM
//
COMPOUND: c1ccc(N=c2sc3ccccc3nc2Nc2ccccc2)cc1
ASSAY VALUE: > 100 µM
//
COMPOUND: CCN1/C(=C\c2cc[n+](CC)c3ccccc23)C=Cc2ccccc21
ASSAY VALUE: 10.3 µM
//
COMPOUND: C[C@@H](Oc1cc(-n2cnc3ccc(CN4CCN(C)CC4)cc32)sc1C(N)=O)c1ccccc1C(F)(F)F
ASSAY VALUE: 0.0369 µM
//
COMPOUND: CC(=O)OC1OC([C@@H]2c3cccc(O)c3C(=O)c3c(O)cc(C)cc32)C(O)C(O)C1O (stereo not given in full)
ASSAY VALUE: 0.382 µM

====

System: UACC-62 melanoma
Experiment: NCI tumour cell line growth inhibition, 48 h; in the data active means GI50 below about 0.43 µM; inactive means the rest
Outcome codes: YES for active, NO for inactive

COMPOUND STRUCTURE: CCN1/C(=C\c2cc[n+](CC)c3ccccc23)C=Cc2ccccc21
LABEL: YES

COMPOUND STRUCTURE: Cc1nc2sccn2c1-c1csc(Nc2ccccc2Cl)n1
LABEL: NO

COMPOUND STRUCTURE: OCCN(CCO)c1ncnc2c1ncn2Cc1ccc(CCl)cc1
LABEL: NO

COMPOUND STRUCTURE: COc1cc(/C=N\NC(=O)CN2CCN(c3cc4c(cc3F)c(=O)c(C(=O)N/N=C/c3cc(OC)c(OC)c(OC)c3)cn4C3CC3)CC2)cc(OC)c1OC
LABEL: YES

COMPOUND STRUCTURE: Cc1cc(-c2nc(C(=O)Nc3cc4oc(N5CCOCC5)nc4nc3N3CC[C@@H](O)C3)co2)ccn1
LABEL: NO

====

Tested on: SF-268 CNS
Test: NCI tumour cell line growth inhibition, 48 h; in the data active = GI50 below about 0.43 µM; inactive = the rest
Outcome codes: true (active), false (inactive)

MOLECULE: O=C(Nc1ccc(-n2ccc3c(NC(=O)c4ccccc4)nccc32)cc1)c1ccc(Cl)c(C(F)(F)F)c1
LABEL: false
//
MOLECULE: Cc1ccnc2c1ccc1c(C)ccnc12
LABEL: false
//
MOLECULE: OCc1cc2ccccc2c2c3c(ccc12)OCO3
LABEL: false
//
MOLECULE: OC1CSSC1Cn1cnc2c(Nc3ccc(OCc4cccc(F)c4)c(Cl)c3)ncnc21 (configuration not stated)
LABEL: false
//
MOLECULE: CCOC1Oc2ccccc2C(=O)/C1=C/Nc1ccc(C(C)=O)cc1 (configuration not stated)
LABEL: false
//
MOLECULE: CCN1CCN(Cc2ccc(NC(=O)c3cccc(C#Cc4cccc5[nH]nc(N)c45)c3)cc2C(F)(F)F)CC1
LABEL: false
//
MOLECULE: O=C1NC(=NCCc2cccc(F)c2)S/C1=C\c1ccc2ncccc2c1
LABEL: false
//
MOLECULE: COC1/C=C/OC2(C)Oc3c(C)c(O)c4c(O)c(c(/C=N/Nc5ccc([N+](=O)[O-])cc5[N+](=O)[O-])c(O)c4c3C2=O)NC(=O)C(C)=C/C=C/C(C)C(O)C(C)C(O)C(C)C(OC(C)=O)C1C (configuration not stated)
LABEL: false
//
MOLECULE: O=C(CCN1CCCCC1)C(=Cc1ccccc1)C(=O)CCN1CCCCC1
LABEL: false
//
MOLECULE: C=C(C)C(OC)C(O)CC1(C)CC(O)CC(C)(C2CCC3OC(C4(C)CCC(Br)C(C)(C)O4)CCC3(C)O2)O1 (configuration not stated)
LABEL: false
//
MOLECULE: COc1cnc2c(c1)C(=O)c1c-2n(CCCN2CCOCC2)c(=O)c2cc(F)ccc12
LABEL: true
//
MOLECULE: CCC(=O)[C@H](C)[C@@H](OC(=O)[C@H](C)CC)[C@H](C)[C@H]1OC(CC)=C(C)C(=O)[C@@H]1C
LABEL: false

====

Tested on: HT29 colon
Assay: NCI tumour cell line growth inhibition, 48 h; in the data active = GI50 below about 0.43 µM; inactive = the rest
Outcome codes: active, inactive

COMPOUND: COc1cc(/C=N\NC(=O)CN2CCN(c3cc4c(cc3F)c(=O)c(C(=O)N/N=C/c3cc(OC)c(OC)c(OC)c3)cn4C3CC3)CC2)cc(OC)c1OC
TEST SYSTEM: HT29 colon
LABEL: active
//
COMPOUND: Cn1cc(C2=C(c3c4n(c5ccccc35)CCCCC4)C(=O)NC2=O)c2ccccc21
TEST SYSTEM: HT29 colon
LABEL: inactive
//
COMPOUND: CC1CCC(n2c3cnccc3c3cnc(Nc4ccc5c(n4)CCN(C(=O)CO)C5)nc32)CC1 (centres undefined)
TEST SYSTEM: HT29 colon
LABEL: inactive
//
COMPOUND: Cc1ccnc2c1ccc1c(C)ccnc12
TEST SYSTEM: HT29 colon
LABEL: inactive
//
COMPOUND: O=C(CCN1CCCCC1)C(=Cc1ccccc1)C(=O)CCN1CCCCC1
TEST SYSTEM: HT29 colon
LABEL: inactive
//
COMPOUND: COC([CH2][Hg][n]1cnc2c1c(=O)n(C)c(=O)n2C)CN1C(=O)c2ccccc2S1(=O)=O (centres undefined)
TEST SYSTEM: HT29 colon
LABEL: inactive
//
COMPOUND: C=CC(=O)Nc1cc(Nc2ncc(C(=O)OC(C)C)c(-c3cn(C)c4ccccc34)n2)c(OC)cc1N(C)CCN(C)C
TEST SYSTEM: HT29 colon
LABEL: inactive
//
COMPOUND: CN(C)c1ccc(/C=C\C2=[N+](C)c3ccccc3C2(C)C)cc1
TEST SYSTEM: HT29 colon
LABEL: active
//
COMPOUND: COc1cc2c(cc1OCCCCN1CCN(CC(=O)Nc3ccc(Cl)cc3C(=O)c3ccccc3Cl)CC1)N=CC1CCCN1C2=O (centres undefined)
TEST SYSTEM: HT29 colon
LABEL: active

====

System: MDA-MB-435
Experiment: NCI tumour cell line growth inhibition, 48 h
*1 amine or outer side, *2 acyl side, *3 side chain or, on linkers, in order; H or OH if unused. Where a SMILES comes first, the peptide text is derived from it. Bridges are numbered along the chain shown (N, C = ends). [ ]: non-standard residue; d: D form. The star is where a group is joined. Phe(3,5-F2) = N[C@@H](Cc1cc(F)cc(F)c1)C(=O)O; Pro(4R-Me) = C[C@H]1CN[C@H](C(=O)O)C1; aThr = C[C@H](O)[C@H](N)C(=O)O; Pip = O=C(O)[C@@H]1CCCCN1; X10 = Fc1cc(C2CC2)ccc1N*; CO = O=C([*:1])[*:2]
Consider the following molecules and their measured TGI readings.

MOLECULE: C[C@@H]1C[C@H]2C(=O)O[C@@H](C)[C@H](NC(=O)[C@H](Cc3cc(F)cc(F)c3)NC(=O)Nc3ccc(C4CC4)cc3F)C(=O)N3CCC[C@H]3C(=O)N3CCCC[C@H]3C(=O)N[C@@H](C)C(=O)N2C1 ({X10-CO}-[Phe(3,5-F2)][aThr]P[Pip]A[Pro(4R-Me)]; ester 2-C)
TGI: 2.71 µM
//
MOLECULE: O=C(N/N=C(/COc1ccc(Cl)cc1)N=Cc1ccncc1)c1ccncc1
TGI: > 100 µM
//
MOLECULE: Cc1ccc(Cl)c2[nH]c(-c3ccccc3)cc(=O)c12
TGI: > 100 µM
//
MOLECULE: Cc1ccsc1C(=S)Nc1ccc(Cl)c(/C=N/OC(C)(C)C)c1
TGI: > 100 µM
//
MOLECULE: O=C1CC(NC(=O)C(F)(F)F)c2c(Br)sc(N3CCNCC3)c21 (stereo not drawn)
TGI: > 100 µM
//
MOLECULE: CC(C)=CCc1c2c(c3occ(-c4ccc(O)cc4)c(=O)c3c1O)CC(C(C)(C)O)O2 (stereo not drawn)
TGI: 30.5 µM
//
MOLECULE: CC[C@@H]1CC[C@@H]2[C@H](CC[C@]3(C)[C@@H](OC(C)=O)CC[C@@H]23)[C@H]1COC(C)=O
TGI: 50.2 µM
//
MOLECULE: c1ccc(N=c2sc3ccccc3nc2Nc2ccccc2)cc1
TGI: > 100 µM
